Potency by entry:
test: qHTS RealTime-Glo MT Cell Viability Assay in HEK293 cells - 40 hour (AID 1224874); settings: RealTime-Glo luminescence; also: potency is read from the fitted curve at half-maximal effect; nearly all actives have a fitted effect of over 50% in size
Records with an inconclusive call do not appear. Activity calls are given as the source filed them. Calls follow the shape of the dose curve; as a rule, active = well fitted cell-killing curve with a large enough effect in the repeat runs; inconclusive = weak or mixed curves, or effect the other way; inactive = flat fitted curve, though single readings scatter.

[[record]]
molecule = "Oc1c(Cl)cc(Cl)c2cccnc12"
result = "8.49 µM (active)"

[[record]]
molecule = "CCOC(=O)O[C@H](C)OC(=O)c1ccc2c(c1)cc(C(=O)NC1CCN(C(C)C)CC1)n2Cc1cc(-c2ccc(Cl)s2)on1"
result = "11.5 µM (active)"

[[record]]
molecule = "CCCCCCCCCCCC[N+](C)(C)CCCCCCCCCCCC"
result = "3.89 µM (active)"

[[record]]
molecule = "CCc1cc(Cc2cc(CC)cc(C(C)(C)C)c2O)c(O)c(C(C)(C)C)c1"
result = "21.9 µM (active)"

[[record]]
molecule = "N=C1N=C(N)c2ccccc21"
result = "24.5 µM (active)"


Task item: What value of Potency has been reported for the following molecule? CCCCCCCCCCCCCC[P+](CCCC)(CCCC)CCCC (tested in a mixture with another compound)
Reply: 0.349 µM (active)

Task item: What value of Potency has been reported for the following molecule? OCCN(CCO)c1nc(N2CCCCC2)c2nc(N(CCO)CCO)nc(N3CCCCC3)c2n1
Reply: 26.8 µM (active)
